Measured normalized growth accompanies every entry in the list below.
- ASSAY_COMMENT: chemical genetic growth profiling, strain panel (AID 1159580);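 further: tested at 20 µM; growth read once vehicle control cultures reached saturation at 30 °C; 1 = growth at the plate median or of vehicle wells; lower values mean less growth of the strain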
- STATED_CONDITIONS: S. cerevisiae deletion strains, growth OD, locus YOR083W, strain WHI5, hits give low values
About 2,000 (36%) of roughly 5,500 compounds were called active. Not shown: some 18% with an inconclusive outcome. The list shows a part of the results.
Give a plain numeric answer without units written out.

Below, each entry is followed by its recorded normalized growth result.
CC(=O)Oc1cc(-c2coc3cc(OC(C)=O)c(OC(C)=O)c(OC(C)=O)c3c2=O)cc(OC(C)=O)c1OC(C)=O | 0.908
O=c1c(-c2cc(O)c(O)c(O)c2)coc2cc(O)c(O)c(O)c12 | 0.903
CC1=NCCc2c1[nH]c1cc(O)ccc21 | 0.954
O=C1c2c(O)ccc(O)c2C(=O)c2c(NCCNCCO)ccc(NCCNCCO)c21 | 0.726

Ask: Query (compound): CC(=O)OCC(=O)[C@H]1CCC2C3CC=C4C[C@@H](O)CC[C@]4(C)C3CC[C@@]21C (stereo partly drawn) ; field requested: normalized growth
Result: 0.885

Ask: Continue with CC(C(=O)O)[C@H]1CCC2C3CC=C4C[C@@H](O)CC[C@]4(C)C3CC[C@@]21C (stereo partly drawn)
Result: 0.983
